The values you see were collected from patent EP1007530B1.

Parameter 'readout' = MIC; parameter 'system' = Micrococcus luteus ATCC 4698.
Provide only the numeric value, understood in µg/mL.

Illustrative cases are given below, each with its answer.
CC[C@H]1OC(=O)[C@H](C)[C@@H](O[C@H]2C[C@@](C)(OC)[C@@H](O)[C@H](C)O2)[C@H](C)[C@@H](O[C@@H]2O[C@H](C)C[C@H](N(C)C)[C@H]2O)[C@](C)(OCC(O)CN2CCOCC2)C[C@@H](C)C(=O)[C@H](C)[C@@H](O)[C@]1(C)O (stereo partly drawn) :: 1.56
CC[C@H]1OC(=O)[C@H](C)[C@@H](O[C@H]2C[C@@](C)(OC)[C@@H](O)[C@H](C)O2)[C@H](C)[C@@H](O[C@@H]2O[C@H](C)C[C@H](N(C)C)[C@H]2O)[C@](C)(OCC(O)Cn2ccnc2)C[C@@H](C)C(=O)[C@H](C)[C@@H](O)[C@]1(C)O (stereo partly drawn) :: 3.1
CCCO[C@]1(C)C[C@@H](C)C(=O)[C@H](C)[C@@H](O)[C@](C)(O)[C@@H](CC)OC(=O)[C@H](C)[C@@H](O[C@H]2C[C@@](C)(OC)[C@@H](O)[C@H](C)O2)[C@H](C)[C@H]1O[C@@H]1O[C@H](C)C[C@H](N(C)C)[C@H]1O :: 3.1

Query string: Fill in: MIC on Micrococcus luteus ATCC 4698, entry CC[C@H]1OC(=O)[C@H](C)[C@@H](O[C@H]2C[C@@](C)(OC)[C@@H](O)[C@H](C)O2)[C@H](C)[C@@H](O[C@@H]2O[C@H](C)C[C@H](N(C)C)[C@H]2O)[C@](C)(OCC(O)CO)C[C@@H](C)C(=O)[C@H](C)[C@@H](O)[C@]1(C)O (stereo partly drawn)
Result string: 1.56

Query string: Fill in: MIC on Micrococcus luteus ATCC 4698, entry CC[C@H]1OC(=O)[C@H](C)[C@@H](O[C@H]2C[C@@](C)(OC)[C@@H](O)[C@H](C)O2)[C@H](C)[C@@H](O[C@@H]2O[C@H](C)C[C@H](N(C)C)[C@H]2O)[C@](C)(OCC(O)CNCc2ccccc2)C[C@@H](C)C(=O)[C@H](C)[C@@H](O)[C@]1(C)O (stereo partly drawn)
Result string: 0.78

Query string: Fill in: MIC on Micrococcus luteus ATCC 4698, entry CC[C@H]1OC(=O)[C@H](C)[C@@H](O[C@H]2C[C@@](C)(OC)[C@@H](O)[C@H](C)O2)[C@H](C)[C@@H](O[C@@H]2O[C@H](C)C[C@H](N(C)C)[C@H]2O)[C@](C)(O)C[C@@H](C)C(=O)[C@H](C)[C@@H](O)[C@]1(C)O [Ery. A, Erythromycin A, reference compound]
Result string: 0.2

Query string: Fill in: MIC on Micrococcus luteus ATCC 4698, entry `CC[C@H]1OC(=O)[C@H](C)[C@@H](O[C@H]2C[C@@](C)(OC)[C@@H](O)[C@H](C)O2)[C@H](C)[C@@H](O[C@@H]2O[C@H](C)C[C@H](N(C)C)[C@H]2O)[C@](C)(OCC=NO)C[C@@H](C)C(=O)[C@H](C)[C@@H](O)[C@]1(C)O`
Result string: 0.78

Query string: Fill in: MIC on Micrococcus luteus ATCC 4698, entry `C#CCO[C@]1(C)C[C@@H](C)C(=O)[C@H](C)[C@@H](O)[C@](C)(O)[C@@H](CC)OC(=O)[C@H](C)[C@@H](O[C@H]2C[C@@](C)(OC)[C@@H](O)[C@H](C)O2)[C@H](C)[C@H]1O[C@@H]1O[C@H](C)C[C@H](N(C)C)[C@H]1O`
Result string: 0.78

Query string: Fill in: MIC on Micrococcus luteus ATCC 4698, entry `CC[C@H]1OC(=O)[C@H](C)[C@@H](O[C@H]2C[C@@](C)(OC)[C@@H](O)[C@H](C)O2)[C@H](C)[C@@H](O[C@@H]2O[C@H](C)C[C@H](N(C)C)[C@H]2O)[C@](C)(OCC=O)C[C@@H](C)C(=O)[C@H](C)[C@@H](O)[C@]1(C)O`
Result string: 1.56

----------
Parameter 'readout' = MIC; parameter 'system' = Streptococcus bovis A-5169.
Provide only the numeric value, understood in mg/L.

CC[C@H]1OC(=O)[C@H](C)[C@@H](O[C@H]2C[C@@](C)(OC)[C@@H](O)[C@H](C)O2)[C@H](C)[C@@H](O[C@@H]2O[C@H](C)C[C@H](N(C)C)[C@H]2O)[C@](C)(OCC(C)=O)C[C@@H](C)C(=O)[C@H](C)[C@@H](O)[C@]1(C)O :: 3.1

Query string: Tell me MIC reported for `CC[C@H]1OC(=O)[C@H](C)[C@@H](O[C@H]2C[C@@](C)(OC)[C@@H](O)[C@H](C)O2)[C@H](C)[C@@H](O[C@@H]2O[C@H](C)C[C@H](N(C)C)[C@H]2O)[C@](C)(OCC=O)C[C@@H](C)C(=O)[C@H](C)[C@@H](O)[C@]1(C)O`
Result string: 0.2

Query string: Tell me MIC reported for CC[C@H]1OC(=O)[C@H](C)[C@@H](O[C@H]2C[C@@](C)(OC)[C@@H](O)[C@H](C)O2)[C@H](C)[C@@H](O[C@@H]2O[C@H](C)C[C@H](N(C)C)[C@H]2O)[C@](C)(O)C[C@@H](C)C(=O)[C@H](C)[C@@H](O)[C@]1(C)O [Ery. A, Erythromycin A, reference compound]
Result string: 0.02

----------
Parameter 'readout' = MIC; parameter 'system' = Staphylococcus aureus CMX 642A.
Provide only the numeric value, understood in µg/mL.

CC[C@H]1OC(=O)[C@H](C)[C@@H](O[C@H]2C[C@@](C)(OC)[C@@H](O)[C@H](C)O2)[C@H](C)[C@@H](O[C@@H]2O[C@H](C)C[C@H](N(C)C)[C@H]2O)[C@](C)(OCC(O)CO)C[C@@H](C)C(=O)[C@H](C)[C@@H](O)[C@]1(C)O (stereo partly shown) [Example 3] :: 1.56

Query string: Fill in: MIC on Staphylococcus aureus CMX 642A, entry CC[C@H]1OC(=O)[C@H](C)[C@@H](O[C@H]2C[C@@](C)(OC)[C@@H](O)[C@H](C)O2)[C@H](C)[C@@H](O[C@@H]2O[C@H](C)C[C@H](N(C)C)[C@H]2O)[C@](C)(OCC(O)CNCc2ccccc2)C[C@@H](C)C(=O)[C@H](C)[C@@H](O)[C@]1(C)O (stereo partly shown) [Example 7]
Result string: 0.39

Query string: Fill in: MIC on Staphylococcus aureus CMX 642A, entry CC[C@H]1OC(=O)[C@H](C)[C@@H](O[C@H]2C[C@@](C)(OC)[C@@H](O)[C@H](C)O2)[C@H](C)[C@@H](O[C@@H]2O[C@H](C)C[C@H](N(C)C)[C@H]2O)[C@](C)(OCC(O)Cn2ccnc2)C[C@@H](C)C(=O)[C@H](C)[C@@H](O)[C@]1(C)O (stereo partly shown) [Example 5]
Result string: 0.78

Query string: Fill in: MIC on Staphylococcus aureus CMX 642A, entry CC[C@H]1OC(=O)[C@H](C)[C@@H](O[C@H]2C[C@@](C)(OC)[C@@H](O)[C@H](C)O2)[C@H](C)[C@@H](O[C@@H]2O[C@H](C)C[C@H](N(C)C)[C@H]2O)[C@](C)(OCC=NO)C[C@@H](C)C(=O)[C@H](C)[C@@H](O)[C@]1(C)O [Example 12]
Result string: 0.39

Query string: Fill in: MIC on Staphylococcus aureus CMX 642A, entry CC[C@H]1OC(=O)[C@H](C)[C@@H](O[C@H]2C[C@@](C)(OC)[C@@H](O)[C@H](C)O2)[C@H](C)[C@@H](O[C@@H]2O[C@H](C)C[C@H](N(C)C)[C@H]2O)[C@](C)(OCC(O)CN2CCOCC2)C[C@@H](C)C(=O)[C@H](C)[C@@H](O)[C@]1(C)O (stereo partly shown) [Example 6]
Result string: 1.56

Query string: Fill in: MIC on Staphylococcus aureus CMX 642A, entry CC[C@H]1OC(=O)[C@H](C)[C@@H](O[C@H]2C[C@@](C)(OC)[C@@H](O)[C@H](C)O2)[C@H](C)[C@@H](O[C@@H]2O[C@H](C)C[C@H](N(C)C)[C@H]2O)[C@](C)(OCC=O)C[C@@H](C)C(=O)[C@H](C)[C@@H](O)[C@]1(C)O [Example 8]
Result string: 0.78

Query string: Fill in: MIC on Staphylococcus aureus CMX 642A, entry C#CCO[C@]1(C)C[C@@H](C)C(=O)[C@H](C)[C@@H](O)[C@](C)(O)[C@@H](CC)OC(=O)[C@H](C)[C@@H](O[C@H]2C[C@@](C)(OC)[C@@H](O)[C@H](C)O2)[C@H](C)[C@H]1O[C@@H]1O[C@H](C)C[C@H](N(C)C)[C@H]1O [Example 10]
Result string: 0.39
